Ki data for SGK1 (human) (UniProt O00141) follow.
Reported Metric: Ki

>  <Compound>
CC(=O)N(c1ccncc1)c1c(N[C@H](C)C(C)(C)C)c(=O)c1=O

>  <Reported Metric>
Ki

>  <Obs Value>
> 10 µM

$$$$
>  <Compound>
N#Cc1ccc2nc(N)n(-c3nc(-c4ccccc4)cs3)c2c1

>  <Reported Metric>
Ki

>  <Obs Value>
> 10 µM

$$$$
>  <Compound>
Cc1ccc(-c2nn(C(C)(C)C)c3ncnc(N)c23)cc1

>  <Reported Metric>
Ki

>  <Obs Value>
> 10 µM

$$$$
>  <Compound>
O=c1[nH]c2cc(Cl)cc(Cl)c2c(-c2cc(Cl)ccc2O)c1O

>  <Reported Metric>
Ki

>  <Obs Value>
> 10 µM

$$$$
>  <Compound>
CC(C)Oc1nccn2c(-c3ccnc(NCC(C)(C)O)n3)c(-c3ccc(F)cc3F)nc12

>  <Reported Metric>
Ki

>  <Obs Value>
> 10 µM

$$$$
>  <Compound>
CCCCNC1=NS(=O)N=C1Nc1ccc(F)cc1 (stereo unspecified)

>  <Reported Metric>
Ki

>  <Obs Value>
> 10 µM

$$$$
>  <Compound>
O=c1c2c([nH]c3cc(-c4ccco4)nn13)CSC2

>  <Reported Metric>
Ki

>  <Obs Value>
> 10 µM

$$$$
>  <Compound>
N[C@@H]1[C@H]2CN(c3nc4c(cc3F)c(=O)c(C(=O)O)cn4-c3ccc(F)cc3F)C[C@@H]12

>  <Reported Metric>
Ki

>  <Obs Value>
> 10 µM

$$$$
>  <Compound>
Cc1cn2c(-c3ccnc(NCC(C)(C)CO)n3)c(-c3ccc(F)cc3F)nc2c(C)n1

>  <Reported Metric>
Ki

>  <Obs Value>
> 10 µM

$$$$
>  <Compound>
CC(=O)Nc1cc(N)c(C#N)c(-c2ccccc2)n1

>  <Reported Metric>
Ki

>  <Obs Value>
> 10 µM

$$$$
>  <Compound>
COCCNc1nccc(-c2c(-c3ccc(F)cc3)nc3cnccn23)n1

>  <Reported Metric>
Ki

>  <Obs Value>
> 10 µM

$$$$
>  <Compound>
Nc1ncnn2ccc(C(=O)Nc3ccc(NC(=O)Nc4cccc(F)c4)cc3)c12

>  <Reported Metric>
Ki

>  <Obs Value>
> 10 µM

$$$$
>  <Compound>
CCN1CCN(Cc2ccc(NC(=O)Nc3ccc(Oc4cc(NC)ncn4)cc3)cc2C(F)(F)F)CC1

>  <Reported Metric>
Ki

>  <Obs Value>
> 6.31 µM

$$$$
>  <Compound>
Cc1cccc(NC(=O)Nc2ccc(-c3cnc4c(-c5cnn(C)c5)cnn4c3N)cc2)c1

>  <Reported Metric>
Ki

>  <Obs Value>
6.31 µM

$$$$
>  <Compound>
Cc1cccc(NC(=O)Nc2ccc(-c3csc4c(C#CC(C)(C)N)cnc(N)c34)cc2)c1

>  <Reported Metric>
Ki

>  <Obs Value>
3.16 µM

$$$$
>  <Compound>
CCCCOc1ncnc2[nH]cc(-c3ccccc3)c12

>  <Reported Metric>
Ki

>  <Obs Value>
2.51 µM

$$$$
>  <Compound>
Cc1c(Cl)c(N2CCC(CN)C2)nc2[nH]cc(C(=O)O)c(=O)c12 (stereo unspecified)

>  <Reported Metric>
Ki

>  <Obs Value>
> 10 µM

$$$$
>  <Compound>
Nc1ncnc2c1c(-c1cccc(OCc3ccccc3)c1)cn2[C@H]1CC[C@H](N2CCCC2)CC1

>  <Reported Metric>
Ki

>  <Obs Value>
> 10 µM

$$$$
>  <Compound>
Cc1cccc(NC(=O)Cc2ccc(-c3cccc4[nH]nc(N)c34)cc2)c1

>  <Reported Metric>
Ki

>  <Obs Value>
0.794 µM

$$$$
>  <Compound>
COc1cc(C(=O)O)c(Cl)cc1NC(=O)Nc1cnc(C#N)cn1

>  <Reported Metric>
Ki

>  <Obs Value>
> 10 µM

$$$$
>  <Compound>
CCCn1c(C2CCNCC2)nc(-c2ccc(Cl)c(Cl)c2)c1-c1ccnc(NC2CCCCC2)n1

>  <Reported Metric>
Ki

>  <Obs Value>
3.16 µM

$$$$
>  <Compound>
C/C(=N/NC(=N)N)c1cc(NC(=O)NCCCN(C)CCCNC(=O)Nc2cc(/C(C)=N\NC(=N)N)cc(/C(C)=N/NC(=N)N)c2)cc(/C(C)=N/NC(=N)N)c1

>  <Reported Metric>
Ki

>  <Obs Value>
> 10 µM

$$$$
>  <Compound>
NC(=O)c1cc2c(Oc3ccc(Br)cc3)cncc2s1

>  <Reported Metric>
Ki

>  <Obs Value>
2 µM

$$$$
>  <Compound>
Cc1nccn2c(-c3ccnc(NCC(C)(C)O)n3)c(-c3ccc(F)cc3F)nc12

>  <Reported Metric>
Ki

>  <Obs Value>
> 10 µM

$$$$
>  <Compound>
O=C(O)c1cc2c(-c3cccc(F)c3)cncc2s1

>  <Reported Metric>
Ki

>  <Obs Value>
> 10 µM

$$$$
>  <Compound>
NC(=O)c1cccc2[nH]c(-c3ccc(C4CCCNC4)cc3F)nc12 (stereo unspecified)

>  <Reported Metric>
Ki

>  <Obs Value>
> 10 µM

$$$$
